FYI, the data here is from the supplement of paper PMC10065799.

Record form. Attribute: phosphorylation enrichment. Fill in for each entry.
# tested target: EPHB2 (UniProt P29323)
# Sequence (P29323 whole entry, looked up): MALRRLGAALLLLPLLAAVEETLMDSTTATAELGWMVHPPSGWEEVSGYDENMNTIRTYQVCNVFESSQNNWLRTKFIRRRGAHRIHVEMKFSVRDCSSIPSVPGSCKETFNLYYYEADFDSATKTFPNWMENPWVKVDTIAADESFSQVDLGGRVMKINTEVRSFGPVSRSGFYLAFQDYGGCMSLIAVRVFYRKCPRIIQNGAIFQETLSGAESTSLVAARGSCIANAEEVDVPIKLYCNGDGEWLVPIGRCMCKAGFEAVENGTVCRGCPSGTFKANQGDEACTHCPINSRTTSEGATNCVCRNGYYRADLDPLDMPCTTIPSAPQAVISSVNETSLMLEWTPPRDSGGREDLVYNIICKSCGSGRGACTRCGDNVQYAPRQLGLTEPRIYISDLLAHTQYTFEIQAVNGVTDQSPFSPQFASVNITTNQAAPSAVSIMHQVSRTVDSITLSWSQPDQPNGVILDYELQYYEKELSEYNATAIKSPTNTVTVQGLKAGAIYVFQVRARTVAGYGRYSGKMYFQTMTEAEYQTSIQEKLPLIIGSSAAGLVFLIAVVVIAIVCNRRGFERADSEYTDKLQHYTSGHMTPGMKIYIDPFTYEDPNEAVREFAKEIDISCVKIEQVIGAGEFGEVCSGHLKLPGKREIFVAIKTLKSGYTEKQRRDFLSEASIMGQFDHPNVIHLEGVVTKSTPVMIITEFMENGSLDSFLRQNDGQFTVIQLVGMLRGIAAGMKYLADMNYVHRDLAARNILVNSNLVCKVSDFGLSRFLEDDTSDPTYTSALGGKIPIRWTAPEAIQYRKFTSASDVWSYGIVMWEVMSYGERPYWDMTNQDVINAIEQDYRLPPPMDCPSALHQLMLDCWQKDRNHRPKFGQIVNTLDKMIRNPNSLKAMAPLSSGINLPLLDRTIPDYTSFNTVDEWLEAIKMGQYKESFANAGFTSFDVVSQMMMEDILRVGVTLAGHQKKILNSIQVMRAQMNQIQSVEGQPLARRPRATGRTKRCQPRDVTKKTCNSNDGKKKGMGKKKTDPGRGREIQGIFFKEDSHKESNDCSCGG
# experiment: phosphorylation enrichment, bacterial display (enrichment ratio); higher = better substrate or ligand; peptides without Tyr show the background;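 further: 11-residue human phosphosite peptides and single-mutation variants displayed on the E. coli surface, counted by deep sequencing, each peptide's frequency after selection divided by its frequency in the unselected input library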;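 further: frequency after pTyr selection over input frequency; kinase dosed for 20-30% of maximal phosphorylation in three min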

[[record]]
sequence_input = "PSDPSYEDMRE [BMPR1A_Y467]"
tested_target = "EPHB2 (UniProt P29323)"
result = 0.495

[[record]]
sequence_input = "CTTIHYMFMCN [TP53_Y234_N235M_YF]"
tested_target = "EPHB2 (UniProt P29323)"
result = 0.668

[[record]]
sequence_input = "SPLTDYSPQLQ [OTC_Y345_L341P]"
tested_target = "EPHB2 (UniProt P29323)"
result = 0.517

[[record]]
sequence_input = "IEELTYIIKQD [STX5_Y137]"
tested_target = "EPHB2 (UniProt P29323)"
result = 0.578

[[record]]
sequence_input = "YSKTQYNQVPR [CXADR_Y318_S323R]"
tested_target = "EPHB2 (UniProt P29323)"
result = 0.431


Hi team, please reply with phosphorylation enrichment for each item in this list.
1. GLPINYTTRRI [LAMA2_Y2894]
2. ESKAGYRVPRS [CLDN7_Y195]
3. RFLTRYIFNRE [HLA-DQB1_Y62_V59L_YF]
4. HKANEYYPVVI [ADAMTS18_Y764_L769I]
5. FPPDGYSRHCE [CTNND1_Y213_Y217C_YF]
6. ERSMSYSDESR [SMG1_Y143]
7. TWNPKYTLRSH [STRN3_Y474]
8. EEGENYQKGER [CHGB_Y173]

Completion:
0.441
0.327
0.567
0.599
0.542
0.541
0.468
0.571

Entry GRSTFYWPSPR [GAGE12J_Y10_R13S_YF] under EPHB2 (UniProt P29323) had phosphorylation enrichment of 0.693
